Target Under Test: T1, full-length beta-Catenin (Uniprot ID P35222) (Homo sapiens (Human), UniProt P35222 1-781)
T1 construct: The assay protocol says full-length beta-Catenin (Uniprot ID P35222); tags are not described; also called bCat; B-Catenin
T1 sequence: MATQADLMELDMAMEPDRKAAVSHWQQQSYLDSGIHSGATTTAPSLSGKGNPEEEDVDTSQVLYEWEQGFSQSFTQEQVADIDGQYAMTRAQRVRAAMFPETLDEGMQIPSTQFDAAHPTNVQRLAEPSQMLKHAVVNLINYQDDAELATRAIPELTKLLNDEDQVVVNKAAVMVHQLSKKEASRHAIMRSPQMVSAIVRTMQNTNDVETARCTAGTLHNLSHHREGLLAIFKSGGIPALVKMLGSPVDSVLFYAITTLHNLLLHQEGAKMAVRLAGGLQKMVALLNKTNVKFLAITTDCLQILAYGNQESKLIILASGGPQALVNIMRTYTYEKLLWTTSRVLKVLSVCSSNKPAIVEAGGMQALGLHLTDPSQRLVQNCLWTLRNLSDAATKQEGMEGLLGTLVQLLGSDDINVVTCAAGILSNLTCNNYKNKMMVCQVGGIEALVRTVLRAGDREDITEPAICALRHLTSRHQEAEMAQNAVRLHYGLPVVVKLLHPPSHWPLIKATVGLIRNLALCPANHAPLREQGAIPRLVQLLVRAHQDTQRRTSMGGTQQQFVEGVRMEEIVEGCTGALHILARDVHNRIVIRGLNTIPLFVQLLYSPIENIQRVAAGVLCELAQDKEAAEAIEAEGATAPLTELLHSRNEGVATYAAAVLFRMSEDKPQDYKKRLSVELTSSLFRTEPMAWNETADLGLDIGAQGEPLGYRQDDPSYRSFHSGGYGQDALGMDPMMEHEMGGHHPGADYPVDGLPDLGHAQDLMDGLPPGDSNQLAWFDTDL
Test Method Notes: fluorescence polarization competition: full-length beta-catenin + 5FAM-TCF4(10-53) probe, peptide titrated
Starred links: 1 amine or outer side, 2 acyl side, 3 side chain; linkers in the order of their positions; H or OH if unused. Positions of bridges follow the written chain, without caps; N, C: chain ends. Non-standard residues stand in square brackets, D forms with d. Primed or numbered codes have the meaning given here. B5(26) = 2-amino-2-(pent-4-en-1-yl)hept-6-enoic acid (bis-pentenylglycine), stitching residue carrying two staples, C=CCCCC(CCCC=C)(N[*:1])C(=O)[*:2]; PyrS2″ = (S)-3-amino-1-((pent-4-en-1-yloxy)carbonyl)pyrrolidine-3-carboxylic acid (stapling residue), C=CCCCOC(=O)N1CC[C@@](N[*:1])(C(=O)[*:2])C1; PyrS3″ = (S)-3-amino-1-((hex-5-en-1-yloxy)carbonyl)pyrrolidine-3-carboxylic acid (stapling residue), C=CCCCCOC(=O)N1CC[C@@](N[*:1])(C(=O)[*:2])C1; B5(24) = 2-amino-2-(pent-4-en-1-yl)hept-6-enoic acid, 2,2-bis(4-pentenyl)glycine (stitching residue), C=CCCCC(CCCC=C)(N[*:1])C(=O)[*:2]; B5(21) = 2-amino-2-(pent-4-en-1-yl)hept-6-enoic acid, bis(4-pentenyl)glycine (stitching residue), C=CCCCC(CCCC=C)(N[*:1])C(=O)[*:2]; B5(6) = 2-amino-2-(pent-4-en-1-yl)hept-6-enoic acid (bis(4-pentenyl)glycine), stitching residue, C=CCCCC(CCCC=C)(N[*:1])C(=O)[*:2]; S(OMe) = O-methyl-L-serine, COC[C@H](N[*:1])C(=O)[*:2]; Phe(3-F) = N[C@@H](Cc1cccc(F)c1)C(=O)O; Phe(4-F) = N[C@@H](Cc1ccc(F)cc1)C(=O)O; His(τ-Me) = Cn1cnc(C[C@H](N)C(=O)O)c1; Phe(2-F) = N[C@@H](Cc1ccccc1F)C(=O)O; Bta = N[C@@H](Cc1csc2ccccc12)C(=O)O; His(π-Me) = Cn1cncc1C[C@H](N)C(=O)O; αAllylPro = C=CC[C@@]1(C(=O)O)CCCN1; 2Thi = N[C@@H](Cc1cccs1)C(=O)O; S8 = C=CCCCCCC[C@](C)(N)C(=O)O
Property: pEC50
Give bare numbers, as −log10 of the molar value.

INSERT INTO assay_data (binder, observed_result) VALUES
  ('Ac-[αAllylPro]DA[B5(21)]DEAAFN[PyrS2″]F[Bta]Q-NH2 (staple 1-4, 4-11, Stapled (stitched) peptide with non-natural residues) [I-462]', 7.55),
  ('Ac-[αAllylPro]DA[B5(21)]DEAA[Phe(3-F)]N[S8]F[Bta]Q-NH2 (staple 1-4, 4-11, Stapled (stitched) peptide with non-natural residues) [I-454]', 6.90),
  ('Ac-[αAllylPro]DA[B5(21)]DEAAFN[S8][His(τ-Me)][Bta]Q-NH2 (staple 1-4, 4-11, Staple isomer composition: earlier-eluting HPLC peak) [I-439]', 5.30);

# return pEC50 for each item in the list
1. Ac-[αAllylPro]DA[B5(21)]DEAAFN[PyrS3″]F[Bta]Q-NH2 (staple 1-4, 4-11; also: earlier-eluting HPLC staple isomer, Staple isomer composition: earlier-eluting HPLC peak) [I-463]
2. Ac-[αAllylPro]DI[B5(6)]DDAAFN[S8]F[Bta]H-NH2 (staple 1-4, 4-11; also: staple isomer composition: earlier-eluting HPLC peak, Staple isomer composition: earlier-eluting HPLC peak) [I-469]

Ans:
7.04
7.57

// for each binder below, give its pEC50
1. Ac-[αAllylPro]DA[B5(21)]DEAA[2Thi]Q[S8][Phe(3-F)]WQ-NH2 (staple 1-4, 4-11, Stapled (stitched) peptide with non-natural residues) [I-450]
2. Ac-[αAllylPro]DA[B5(26)]DEAAFN[S8][His(π-Me)][Bta]Q-NH2 (staple 1-4, 4-11, Stapled (stitched) peptide with non-natural residues) [I-438]
3. Ac-[αAllylPro]DI[B5(6)]DDAAFN[S8]F[Bta]Q-NH2 (staple 1-4, 4-11; also: staple isomer composition: earlier-eluting HPLC peak, Staple isomer composition: earlier-eluting HPLC peak) [I-467]
4. Ac-[αAllylPro]DA[B5(21)]DEAA[Phe(4-F)]N[S8]F[Bta]Q-NH2 (staple 1-4, 4-11, Stapled (stitched) peptide with non-natural residues) [I-455]
5. Ac-[αAllylPro]DA[B5(24)]DEAAFN[S8][Phe(2-F)][Bta]Q-NH2 (staple 1-4, 4-11, Stapled (stitched) peptide with non-natural residues) [I-434]
6. XDAXDEAAFNXHXQ (not fully specified; Ac-PL3-Asp-Ala-B5-Asp-Glu-Ala-Ala-Phe-Asn-S8-1meH-BztA-Gln-NH2; N-terminal acetyl, C-terminal amide; stapled PL3(1)-B5(4) and B5(4)-S8(11) by olefin metathesis, Staple isomer composition: later-eluting HPLC peak) [I-440]
7. Ac-[αAllylPro]DA[B5(21)]DEAAFN[PyrS3″]F[Bta]Q-NH2 (staple 1-4, 4-11; not fully specified; printed as Ac-PL3-Asp-Ala-B5-Asp-Glu-Ala-Ala-Phe-Asn-PyrS3-Phe-BztA-Gln-NH2, Staple isomer composition: later-eluting HPLC peak) [I-464]
8. Ac-[αAllylPro]DA[B5(24)]DEAAF[S(OMe)][S8]F[Bta]Q-NH2 (staple 1-4, 4-11, Stapled (stitched) peptide with non-natural residues) [I-433]

Ans:
1. 5.43
2. 5.30
3. 7.36
4. 7.08
5. 7.17
6. 5.30
7. 7.24
8. 6.87

Q: Could you share which pEC50 value was measured for Ac-[αAllylPro]DA[B5(21)]DEAA[Phe(2-F)]N[S8]F[Bta]Q-NH2 (staple 1-4, 4-11, Stapled (stitched) peptide with non-natural residues) [I-453] ?
Ans: 5.81
